- Study System: T1, EsCas13d, nuclease-dead (Eubacterium siraeum, UniProt B0MS50, R295A;H300A;R849A;H854A)
- T1 sequence: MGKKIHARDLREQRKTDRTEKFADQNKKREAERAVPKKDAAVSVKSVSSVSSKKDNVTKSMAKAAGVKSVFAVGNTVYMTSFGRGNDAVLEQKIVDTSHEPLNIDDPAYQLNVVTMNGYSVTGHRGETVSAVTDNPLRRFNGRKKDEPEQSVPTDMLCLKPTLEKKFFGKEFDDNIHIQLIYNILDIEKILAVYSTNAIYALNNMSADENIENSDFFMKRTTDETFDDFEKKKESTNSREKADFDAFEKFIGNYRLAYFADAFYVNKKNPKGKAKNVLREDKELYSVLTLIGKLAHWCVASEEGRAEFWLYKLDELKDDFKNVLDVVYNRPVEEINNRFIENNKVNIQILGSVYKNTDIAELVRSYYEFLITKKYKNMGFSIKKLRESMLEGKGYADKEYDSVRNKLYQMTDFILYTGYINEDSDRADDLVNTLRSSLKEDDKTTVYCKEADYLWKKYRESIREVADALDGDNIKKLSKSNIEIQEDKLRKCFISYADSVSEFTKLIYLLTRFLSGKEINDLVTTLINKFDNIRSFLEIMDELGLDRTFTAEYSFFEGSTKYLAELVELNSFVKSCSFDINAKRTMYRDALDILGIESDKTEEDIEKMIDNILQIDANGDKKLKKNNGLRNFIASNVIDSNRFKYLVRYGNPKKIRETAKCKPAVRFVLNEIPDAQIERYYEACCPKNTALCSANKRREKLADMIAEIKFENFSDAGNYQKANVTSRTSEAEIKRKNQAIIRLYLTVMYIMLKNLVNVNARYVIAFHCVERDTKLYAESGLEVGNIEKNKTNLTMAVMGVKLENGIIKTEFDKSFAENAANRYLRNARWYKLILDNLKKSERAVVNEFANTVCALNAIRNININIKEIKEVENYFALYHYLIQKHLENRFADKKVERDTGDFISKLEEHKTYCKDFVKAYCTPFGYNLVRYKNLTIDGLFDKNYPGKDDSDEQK
- Experiment Description: crRNA (strand 1, pre-loaded); Mg2+; 40 mM Tris-HCl pH 7.5, 150 mM NaCl, 6 mM MgCl2, 1 mM DTT, 0.1% Tween-20, 0.2 mg/ml BSA; 25 C; 10 min per concentration, then washed
- Particulars: tags: His6-TwinStrep-SUMO cleaved; N-terminal SNAP kept (SNAP-Surface 488); label: 3' end held by stalled T7 RNA polymerase
Kindly state Kd for each of the entries shown.
Express the result in nM but write the number alone.

Problem: Please report the measured Kd for target 1 MT 5'PFS AAC 3'PFS CUA (mixed) RNA 1: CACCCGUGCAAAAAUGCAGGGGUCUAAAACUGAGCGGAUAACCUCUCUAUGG RNA 2: GGGAAUGGAUCCACAUCUACGAAUUCAACCCAUAGAGAGGUUAUCCGCUCACUAAGAUCGGAAGAGCACACGU
Result: 39

Problem: Please report the measured Kd for target 1 insC 3' of 20,insU 3' of 6 (mixed) RNA 1: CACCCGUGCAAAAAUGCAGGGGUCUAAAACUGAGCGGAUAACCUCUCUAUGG RNA 2: GGGAAUGGAUCCACAUCUACGAAUUCGUACCACUAGAGAGGUUAUCCUGCUCACCGAGAUCGGAAGAGCACACGU
Result: 11.3

Problem: Please report the measured Kd for target 1 insU 3' of 22,insU 3' of 21 (mixed) RNA 1: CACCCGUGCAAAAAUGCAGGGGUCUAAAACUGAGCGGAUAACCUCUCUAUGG RNA 2: GGGAAUGGAUCCACAUCUACGAAUUCGUACUCUAUAGAGAGGUUAUCCGCUCACCGAGAUCGGAAGAGCACACGU
Result: 85

Problem: Please report the measured Kd for target 3 del1,del5 (mixed) RNA 1: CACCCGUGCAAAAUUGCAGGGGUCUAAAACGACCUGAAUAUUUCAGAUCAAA RNA 2: GGGAAUGGAUCCACAUCUACGAAUUCGUUUUUGAUCUGAAAUAUUCGGUUGCAGAUCGGAAGAGCACACGU
Result: 14
